Source listed as the COVID Moonshot data (paper PMC11187573).

Conditions: 20.0 µM
value-type: relative solubility at 20 uM

Past entries and their recorded results:
1) COc1cc(CNC(=O)Cc2ncc[nH]2)c2ccccc2n1    1
2) O=C(Nc1nncn1C1CC1)C1CCOc2ccc(Cl)cc21 (stereo unspecified)    1
3) N#Cc1cccc(NC(=O)Nc2cccnc2)c1    1
4) COc1ccccc1N1CCN(C(=O)c2cc(=O)[nH]c3ccccc23)CC1    1
5) O=C1/C(=C/c2ccc(O)cc2)c2ccccc2C(=O)N1Cc1ccc2c(c1)OCO2    0.62
6) CC(=O)N[C@@H](C)C(=O)Nc1cnccc1C (stereo in doubt)    1

For each listed entry, give its relative solubility at 20 uM.
1. C=CC(=O)N(c1ccc(C(F)(F)F)cc1)C(C(=O)NCCc1cccc(F)c1)c1cncc(Cl)c1 (stereo unspecified)
2. COc1cc(CN2CCN(C(=O)CCl)CC2)c2ccccc2c1
3. Cc1ccc(S(=O)(=O)NC2CCN(C(=O)CCl)CC2)cc1

Ans:
[0.94, 1, 1]

For each listed entry, give its relative solubility at 20 uM.
1. O=C(CCl)N1CCN(S(=O)(=O)c2cccc(F)c2)CC1
2. C=CC(=O)N(c1ccc(N(C)C)c(C)c1)C(C(=O)Nc1ccccc1Br)c1cccnc1 (stereo unspecified)

Ans:
1
0.86
